Experiment: chemical genetic growth profiling, strain panel (AID 1159580);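 further: tested at 20 µM; growth read once vehicle control cultures reached saturation at 30 °C; 1 = growth at the plate median or of vehicle wells; lower values mean less growth of the strain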
Conditions: S. cerevisiae deletion strains, growth OD, locus YOR080W, strain dia2, stronger effect = lower value
Hit rate of the full screen: of about 5,500 compounds, about 2,000 (36%) were called active. About 18% were inconclusive and are not listed. The list shows a part of the results.
Assign normalized growth to each entry below.
The answer should be written as a number, with no unit following it.

For CCCOc1ccc2nc(NC(=O)OC)[nH]c2c1 the compound record lists normalized growth as 1.02

For Cc1c(C)c2c(c(C)c1O)CCC(C)(CCCC(C)CCCC(C)CCCC(C)C)O2 (stereo not drawn) the compound record lists normalized growth as 0.985

For NCC(=O)c1ccccc1 the compound record lists normalized growth as 0.995

====

Experiment: chemical genetic growth profiling, strain panel (AID 1159580);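 further: tested at 20 µM; growth read once vehicle control cultures reached saturation at 30 °C; 1 = growth at the plate median or of vehicle wells; lower values mean less growth of the strain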
Details: S. cerevisiae deletion strains, growth OD, locus YLR027C, strain aat2, stronger effect = lower value
About 2,000 (36%) of roughly 5,500 compounds were called active. Not shown: some 18% with an inconclusive outcome. Some of the results follow.
Assign normalized growth to each entry below.
The answer should be written as a number, with no unit following it.

For CC(=O)O[C@@H]1C=C[C@@]2(C)C(C[C@@H](OC(C)=O)[C@@]3(C)C4=CC(=O)O[C@@H](c5ccoc5)[C@]4(C)CCC23)C1(C)C (stereo not given in full) the molecule record lists normalized growth as 1

For CC(Cc1cccc(C(F)(F)F)c1)NCCOC(=O)c1ccccc1 (stereo not given) the molecule record lists normalized growth as 0.93

For CN(C)CCCN1c2ccccc2CCc2ccccc21 the molecule record lists normalized growth as 1

For COc1cc(C(C)=O)cc(OC)c1O the molecule record lists normalized growth as 1.01

For C/C1=C/CC(C)(C)/C=C/C/C(C)=C/CC1 the molecule record lists normalized growth as 1.01

====

Experiment: chemical genetic growth profiling, strain panel (AID 1159580);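 further: tested at 20 µM; growth read once vehicle control cultures reached saturation at 30 °C; 1 = growth at the plate median or of vehicle wells; lower values mean less growth of the strain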
Settings: S. cerevisiae deletion strains, growth OD, locus YMR125W, strain sto1, stronger effect = lower value
In all, about 5,500 compounds went through this assay and about 2,000 (36%) were called active. About 18% were inconclusive and are not listed. This is one part of the list.
Assign normalized growth to each entry below.

For CN[C@@H]1[C@H](O)[C@H](NC)[C@H]2O[C@@]3(O)C(=O)C[C@@H](C)O[C@H]3O[C@@H]2[C@H]1O the compound record lists normalized growth as 0.99 (inactive)

For CC(C)CCCC(C)C1CCC2C3C[C@@H](O)[C@@]4(O)C[C@@H](O)CC[C@]4(C)C3CC[C@]12C (stereo not given in full) the compound record lists normalized growth as 1.02 (inactive)

For CN(C)[C@@H]1C(=O)C(C(N)=O)=C(O)[C@@]2(O)C(=O)C3=C(O)c4c(O)ccc(Cl)c4[C@@H](O)[C@H]3C[C@@H]12 the compound record lists normalized growth as 0.918 (inactive)

For CCN(CC)CCOCCOC(=O)C1(c2ccccc2)CCCC1 the compound record lists normalized growth as 0.987 (inactive)

For Oc1c(Cl)cc(Cl)cc1Sc1cc(Cl)cc(Cl)c1O the compound record lists normalized growth as 0.0858 (active)
